Tested on: FT3469 (normal neural stem cell line)
assay-remarks: surviving fraction (nuclei count normalised to DMSO); higher = more cells surviving (less toxic)
cond: 111.1 nM; exposure time: 72 h
Counter-ions that a name gives are not always drawn.
recorded-endpoint: surviving fraction
Please reply with the value in numeric form only.

Report measured surviving fraction on FT3469; entry: CNCCCC12CCC(c3ccccc31)c1ccccc12 [Maprotiline hydrochloride]
1.07

Report measured surviving fraction on FT3469; entry: CCC1=C[C@@H]2CN(C1)Cc1c([nH]c3ccccc13)[C@@](C(=O)OC)(c1cc3c(cc1OC)N(C)[C@H]1[C@@](O)(C(=O)OC)[C@H](OC(C)=O)[C@]4(CC)C=CCN5CC[C@]31[C@@H]54)C2 [Vinorelbine Tartrate]
0.827

Report measured surviving fraction on FT3469; entry: CN1C(=O)[C@@]23C[C@]4([C@]56C[C@@]78SS[C@@](CO)(C(=O)N7[C@H]5Nc5ccccc56)N(C)C8=O)c5ccccc5N[C@@H]4N2C(=O)[C@]1(CO)SS3
0.194

* * *

Tested on: FT3469
assay-remarks: surviving fraction (nuclei count normalised to DMSO); higher = more cells surviving (less toxic)
cond: 12.3 nM; exposure time: 72 h
Where a name gives a salt, the structure may show the parent alone.
Response field class: enum, chosen by comparing surviving fraction against low-valued = under 0.9, mid-valued = from 0.9 up to 1, high-valued = 1 and over

For this molecule, which bin applies? COc1cc([C@@H]2c3cc4c(cc3[C@H](O)[C@H]3COC(=O)[C@H]23)OCO4)cc(OC)c1OC
low-valued

For this molecule, which bin applies? CN1C(=O)[C@@]23C[C@]4([C@]56C[C@@]78SS[C@@](CO)(C(=O)N7[C@H]5Nc5ccccc56)N(C)C8=O)c5ccccc5N[C@@H]4N2C(=O)[C@]1(CO)SS3
low-valued

For this molecule, which bin applies? Cc1cc(Nc2cc(N3CCN(C)CC3)nc(Sc3ccc(NC(=O)C4CC4)cc3)n2)n[nH]1
low-valued

For this molecule, which bin applies? CCC(C)n1ncn(-c2ccc(N3CCN(c4ccc(OCC5COC(Cn6cncn6)(c6ccc(Cl)cc6Cl)O5)cc4)CC3)cc2)c1=O (stereo unspecified)
high-valued

For this molecule, which bin applies? CNCCc1ccccn1 [Betahistine mesylate]
high-valued

For this molecule, which bin applies? c1ccc2c(c1)[I+]c1ccccc1-2 [Diphenyleneiodonium chloride]
low-valued

For this molecule, which bin applies? CN1CCC(NC(=O)c2cc(-c3c(O)cc(O)cc3Oc3ccc([N+](=O)[O-])cc3)on2)CC1
mid-valued

For this molecule, which bin applies? CC(=O)[C@]1(O)Cc2c(O)c3c(c(O)c2[C@@H](O[C@H]2C[C@H](N)[C@H](O)[C@H](C)O2)C1)C(=O)c1ccccc1C3=O
low-valued

For this molecule, which bin applies? Cc1c(-c2ccc(-c3ccccc3F)cc2)nc2ccc(F)cc2c1C(=O)O [Brequinar sodium salt hydrate]
mid-valued

For this molecule, which bin applies? Cc1cccn2c(=O)c(-c3nnn[nH]3)cnc12
mid-valued

For this molecule, which bin applies? Clc1ccc(COC(Cn2ccnc2)c2ccc(Cl)cc2Cl)c(Cl)c1 (stereo unspecified)
high-valued

For this molecule, which bin applies? Cc1ncc(CO)c(CO)c1O [Pyridoxine hydrochloride]
mid-valued

For this molecule, which bin applies? CCOC(=O)OC(C)OC1=C(C(=O)Nc2ccccn2)N(C)S(=O)(=O)c2ccccc21 (stereo unspecified)
high-valued

For this molecule, which bin applies? CC(C)C[C@H](NC(=O)CNC(=O)c1cc(Cl)ccc1Cl)B(O)O
low-valued

For this molecule, which bin applies? Nc1ncnc2c1c(-c1ccc(Oc3ccccc3)cc1)cn2C1CCCC1
high-valued

* * *

Tested on: E34 (patient-derived glioblastoma stem cells of proneural subtype)
assay-remarks: surviving fraction (nuclei count normalised to DMSO); higher = more cells surviving (less toxic)
cond: 4.11523 nM; exposure time: 72 h
recorded-endpoint: surviving fraction
Please reply with the value in numeric form only.

Report measured surviving fraction on E34; entry: COc1cc([C@@H]2c3cc4c(cc3[C@@H](O[C@@H]3O[C@@H]5CO[C@@H](C)O[C@H]5[C@H](O)[C@H]3O)[C@H]3COC(=O)[C@H]23)OCO4)cc(OC)c1O [Etoposide]
0.83

Report measured surviving fraction on E34; entry: Cc1ccc(NC(=O)c2ccc3c(c2)OCCO3)cc1NC(=O)c1ccc2nc(OCCN3CCCC3)ccc2c1
0.432

Report measured surviving fraction on E34; entry: O=c1c2ccccc2[se]n1-c1ccccc1 [Ebselen]
0.901

Report measured surviving fraction on E34; entry: C[C@@H](O)[C@H]1C(=O)N2C(C(=O)O)=C(S[C@@H]3CN[C@H](C(=O)N(C)C)C3)[C@H](C)[C@H]12 [Meropenem]
1.07

* * *

Test system: E31 (patient-derived glioblastoma stem cells of proneural subtype)
assay-remarks: phenotypic distance (Euclidean, principal components) from DMSO controls (arbitrary units); higher = stronger morphological change
cond: 1000 nM; exposure time: 72 h
Structures can show the parent of a compound that is named as a salt.
recorded-endpoint: phenotypic distance
Please reply with the value in numeric form only.

Indicate its recorded phenotypic distance; the molecule in question is CCc1c2c(nc3ccc(OC(=O)N4CCC(N5CCCCC5)CC4)cc13)-c1cc3c(c(=O)n1C2)COC(=O)[C@]3(O)CC
1.39

Indicate its recorded phenotypic distance; the molecule in question is COC(=O)C1=C(C)NC(C)=C(C(=O)OCC(C)C)C1c1ccccc1[N+](=O)[O-] (stereo not given)
1.03

Indicate its recorded phenotypic distance; the molecule in question is CC(=O)O[C@H]1C[C@H](O[C@H]2[C@@H](O)C[C@H](O[C@H]3[C@@H](O)C[C@H](O[C@H]4CC[C@@]5(C)[C@H](CC[C@@H]6[C@@H]5C[C@@H](O)[C@]5(C)[C@@H](C7=CC(=O)OC7)CC[C@]65O)C4)O[C@@H]3C)O[C@@H]2C)O[C@H](C)[C@H]1O[C@@H]1O[C@H](CO)[C@@H](O)[C@H](O)[C@H]1O [Lanatoside C]
4.62

Indicate its recorded phenotypic distance; the molecule in question is CCC[C@@H]1C[C@@H](C(=O)N[C@@H]([C@H]2O[C@H](SC)[C@H](O)[C@@H](O)[C@H]2O)[C@@H](C)O)N(C)C1 [Lincomycin hydrochloride]
0.74

Indicate its recorded phenotypic distance; the molecule in question is COC(=O)Nc1nc2cc(C(=O)c3ccc(F)cc3)ccc2[nH]1
5.22

* * *

Test system: E31
assay-remarks: surviving fraction (nuclei count normalised to DMSO); higher = more cells surviving (less toxic)
cond: 333.3 nM; exposure time: 72 h
Structures can show the parent of a compound that is named as a salt.
recorded-endpoint: surviving fraction
Please reply with the value in numeric form only.

Indicate its recorded surviving fraction; the compound in question is Nc1ccn([C@H]2CC[C@@H](CO)O2)c(=O)n1 [Zalcitabine]
0.919

Indicate its recorded surviving fraction; the compound in question is CC(=O)[C@]1(O)Cc2c(O)c3c(c(O)c2[C@@H](O[C@H]2C[C@H](N)[C@H](O)[C@H](C)O2)C1)C(=O)c1ccccc1C3=O [Idarubicin]
0.139

Indicate its recorded surviving fraction; the compound in question is CC[n+]1c(/C=C/C=C2/N(C)c3ccccc3C2(C)C)sc2ccccc21
0.21

Indicate its recorded surviving fraction; the compound in question is CCCCCCCCCCCCCCCC[N+](C)(C)CCN(Cc1ccc(OC)cc1)c1ncccn1 [Thonzonium bromide]
0.882

Indicate its recorded surviving fraction; the compound in question is CC(=O)OC[C@H]1O[C@@H]([S-])[C@H](OC(C)=O)[C@@H](OC(C)=O)[C@@H]1OC(C)=O.CCP(CC)CC.[Au+] [Auranofin]
1.09

Indicate its recorded surviving fraction; the compound in question is CC(=O)O[C@@]12CO[C@@H]1C[C@H](O)[C@@]1(C)C(=O)[C@H](O)C3=C(C)[C@@H](OC(=O)[C@H](O)[C@@H](NC(=O)OC(C)(C)C)c4ccccc4)C[C@@](O)([C@@H](OC(=O)c4ccccc4)[C@H]21)C3(C)C [Docetaxel]
0.134

Indicate its recorded surviving fraction; the compound in question is CC(C)C[C@@H](C(=O)N[C@H](C(=O)OC1CCCC1)c1ccccc1)[C@H](O)C(=O)NO [Tosedostat]
0.836

Indicate its recorded surviving fraction; the compound in question is CC[C@]1(O)C[C@@H]2CN(CCc3c([nH]c4ccccc34)[C@@](C(=O)OC)(c3cc4c(cc3OC)N(C)[C@H]3[C@@](O)(C(=O)OC)[C@H](OC(C)=O)[C@]5(CC)C=CCN6CC[C@]43[C@@H]65)C2)C1 [Vinblastine sulfate]
0.0444

Indicate its recorded surviving fraction; the compound in question is NC(=O)c1cccc2cn(-c3ccc([C@@H]4CCCNC4)cc3)nc12 [Niraparib]
0.939

Indicate its recorded surviving fraction; the compound in question is C[C@H]1O[C@@H](O[C@H]2[C@@H](O)C[C@H](O[C@H]3[C@@H](O)C[C@H](O[C@H]4CC[C@@]5(C)[C@H](CC[C@@H]6[C@@H]5C[C@@H](O)[C@]5(C)[C@@H](C7=CC(=O)OC7)CC[C@]65O)C4)O[C@@H]3C)O[C@@H]2C)C[C@H](O)[C@@H]1O [Digoxin]
0.36

Indicate its recorded surviving fraction; the compound in question is CC1(C(=O)O)C2CCC(O2)C1(C)C(=O)O (stereo not drawn) [Cantharidic Acid]
1.04

Indicate its recorded surviving fraction; the compound in question is OCCN1CCN(CCCN2c3ccccc3Sc3ccc(Cl)cc32)CC1 [Perphenazine]
1.18

Indicate its recorded surviving fraction; the compound in question is Cc1c2ccncc2c(C)c2c1[nH]c1ccccc12 [Ellipticine]
0.768
